- System: Daudi leukemic cells
- experiment summary: 3H-thymidine assay
- Type: cell-based
- settings: Homo sapiens, read-out: active substance concentration at which 3H-thymidine insertion was 50% inhibited
experimental endpoint: IC50 (µM)
Return type: number; implicit unit µM.

Lab note: need IC50 with Daudi leukemic cells for entry O=c1ccc2cc(O[C@@H]3O[C@H](CO)[C@@H](O)[C@H](O)[C@H]3O)c(O)cc2o1 [Esculin] , please look it up.
100

----------
- System: CAKI-2 cells
- experiment summary: 3H-thymidine assay
- Type: cell-based
- settings: Homo sapiens, CAKI-2, read-out: active substance concentration at which 3H-thymidine insertion was 50% inhibited
experimental endpoint: IC50

May I ask what IC50 has been recorded for O=c1ccc2cc(O[C@@H]3O[C@H](CO)[C@@H](O)[C@H](O)[C@H]3O)c(O)cc2o1 [Esculin] ?
> 500 µM

----------
- Test system: At T 20
- experiment summary: 3H-thymidine assay
- Format: cell-based
- settings: Mus musculus, AtT20; Table 4; read-out: active substance concentration at which 3H-thymidine insertion was 50% inhibited
- Protocol: The cell lines were cultivated as indicated in Example 1. […] In a 24-well-plate, in each case 10^4 cells of the line to be investigated were inoculated per well. […] Subsequently the cultures were washed twice with ice-cold PBS and the high-molecular-weight ^3 H-radioactivity was precipitated with 5% trichloroacetic acid for one hour at 4° C. After the washing of the cells in PBS the ^3 H-radioactivity was solubilized with 0.3M NaOH and measured in the counter. […]
experimental endpoint: IC50 (µM)
Give a bare numeral; the unit µM is implied.

> print(dat)
                                   molecule  number
1  O=c1ccc2ccc(O)cc2o1 [7-OH-1,2-BP, 7-hydroxy-1,2-benzopyrone]      50

Report IC50 for O=c1ccc2cc(O)c(O)cc2o1 [Esculetin, 6,7-hydroxy-1,2-benzopyrone] please.
250

Any idea what IC50 was measured for COc1cc2ccc(=O)oc2cc1O [Scopoletin, 6-methoxy-7-hydroxy-1,2-benzopyrone] ?
250

----------
- System: HCV cells
- experiment summary: 3H-thymidine assay
- Format: cell-based
- settings: Table 4; *: maximum usable dosage, no 50% inhibition; read-out: active substance concentration at which 3H-thymidine insertion was 50% inhibited
experimental endpoint: IC50 (µM)
Output spec: scalar in µM, unitless text.

I'm curious: which IC50 was measured for O=c1ccc2ccc(O)cc2o1 [7-OH-1,2-BP, 7-hydroxy-1,2-benzopyrone] tested on HCV cells?
500

----------
- Test system: Z-R-75-1 breast cancer cells
- experiment summary: 3H-thymidine assay
- Assay type: cell-based
- settings: Homo sapiens, ZR-75-1; Table 4; *: maximum usable dosage, no 50% inhibition; read-out: active substance concentration at which 3H-thymidine insertion was 50% inhibited
experimental endpoint: pIC50
// pIC50 here means minus log10 of the molar concentration (mol/L)

> print(dat)
                                   compound  experimental.endpoint  number
1  O=c1ccc2ccc(O)cc2o1 [7-OH-1,2-BP, 7-hydroxy-1,2-benzopyrone]                  pIC50    4.30

Next compound, please.
What measured pIC50 goes with O=c1ccc2cc(O)c(O)cc2o1 [Esculetin, 6,7-hydroxy-1,2-benzopyrone] ?
3.76

----------
Reported pIC50 values are given for each entry in this list.
- System: MCF-7 breast cancer cells
- experiment summary: 3H-thymidine assay
- Type: cell-based
- settings: Homo sapiens, MCF7; Table 4; *: maximum usable dosage, no 50% inhibition; read-out: active substance concentration at which 3H-thymidine insertion was 50% inhibited
Reminder that pIC50 is minus the log10 of a molar concentration.

> print(dat)
                                   compound  number
1  O=c1ccc2cc(O)c(O)cc2o1 [Esculetin, 6,7-hydroxy-1,2-benzopyrone]    3.60

Next compound, please.
Give the measured pIC50 of O=c1ccc2ccc(O)cc2o1 [7-OH-1,2-BP, 7-hydroxy-1,2-benzopyrone] .
4.00

// provenance: patent US5525626A
